# target.under.test: CASK, O14936
# Sequence (O14936 487-570): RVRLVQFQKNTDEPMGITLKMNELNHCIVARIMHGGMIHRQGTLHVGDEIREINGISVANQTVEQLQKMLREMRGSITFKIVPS
# protocol.text: holdup assay
# Parameters: key: below the threshold = too weak to quantify, mostly under pKd 3.1 to 4
# setup.conditions: plain residues with an end cap or a label only (N-terminal biotin on a linker: ado-ado)
parameter.measured: pKd

Study these solved cases before continuing.
## Task Quick one: pKd of QGPVETESVV [SLC45A4, Q5BKX6] ?
## Result below the threshold

## Task Quick one: pKd of YRLAQESGLV [ABCC6, O95255] ?
## Result below the threshold

## Task Quick one: pKd of ETQVTAETVI [TMEM225B, P0DP42] ?
## Result below the threshold

## Task Quick one: pKd of PEYLGLDVPV [ERBB2, P04626] ?
## Result below the threshold

## Task Quick one: pKd of QSLNRMEYIV [JAG1, P78504] ?
## Result below the threshold

Quick one: give me pKd for each item below, same order please.
1. QMNQTLPVQV [EPHB3, P54753]
2. EKKTLIGIKL [GOT1L1, Q8NHS2]
3. KKMPSIESDV [GRIN2A, Q12879]

## Result
1. below the threshold
2. below the threshold
3. below the threshold
